Protocol: NCI Yeast Anticancer Drug Screen. Data for the mlh1 rad18 strain (AID 175)
Run Parameters: S. cerevisiae mlh1 rad18 strain growth inhibition; at 50.0 µM; stronger effect = higher value
Procedure: Growth inhibition of yeast strains with defined genetic alterations is measured as a screen for potential anti-cancer activity. Selected strains with alterations in DNA damage repair or cell cycle control were exposed to compounds and growth inhibition was measured relative to vehicle treated controls. The strain used in this assay is mlh1 rad18
The panel holds about 79,000 compounds, 15% with a hit somewhere; the sample as a whole holds those more often.
Item-by-item account of growth inhibition
Readout Type: growth inhibition (%)

Compound | Readout Type | Unit | Reported Result
NC(=O)c1ccc(I)cc1 | growth inhibition | % | 8.25
Clc1ccc2nsnc2c1 | growth inhibition | % | 35
CS(=O)(=O)OCCCCOS(=O)(=O)CF | growth inhibition | % | -20
CC1=CC(=O)C2=C(C)CCC3C(C)C(=O)OC3C12 (stereo not given) | growth inhibition | % | -60.7
CC(NC(=O)C(N)CC(=O)O)C(=O)OC12CC3CC(CC(C3)C1)C2 (stereo not given) | growth inhibition | % | -10.8
O=S(=O)(O)c1cccc2c1oc1ccccc12 | growth inhibition | % | -19
O=C(CC/[N+]([O-])=C/c1ccccc1)OCc1ccccc1 | growth inhibition | % | 52.5
CCCC1(C)OCC(C)([N+](=O)[O-])CO1 (stereo not given) | growth inhibition | % | 10.8
CCCCCCSC#N | growth inhibition | % | 7.05
Cn1c2ccccc2c2nnc(N/N=C/c3cccs3)nc21 | growth inhibition | % | 10.7
Cc1ccc2c(=O)cc(-c3ccccc3)[nH]c2n1 | growth inhibition | % | -41.1
COc1ccc(NCc2cnc3nc(N)nc(N)c3c2C)cc1 | growth inhibition | % | -49
Cc1ccc(Cl)cc1NC(=O)Oc1ccc(C(C)(C)C)cc1Br | growth inhibition | % | 60.2
CCOC(=O)c1ccc2c3c(ccc([N+](=O)[O-])c13)CC2 | growth inhibition | % | -8.35
N#CCCOC(=O)Nc1ccccc1 | growth inhibition | % | 0.6
O=C(O)CSSCC(=O)O | growth inhibition | % | -24.5
CSC(=S)n1nc(-c2ccccc2)c(N=Nc2cccc(Cl)c2Cl)c1-c1ccccc1 | growth inhibition | % | 95.2
O=c1nc2n(cc1F)C1OC(CCl)C(O)C1O2 (stereo not given) | growth inhibition | % | 2.2
CC(=O)NC(Cc1ccc(C)cc1)C(=O)O (stereo not given) | growth inhibition | % | 1.7
CC/C(=C\c1ccc(OC)cc1)c1ccc(OC)cc1 | growth inhibition | % | -5.05
N/N=C1\CC(=O)NC(=O)N1 | growth inhibition | % | 0.05
NCCN(Cc1ccccc1)C1CC1 | growth inhibition | % | -1.05
C=C(Cl)COC(=O)C(C)O (stereo not given) | growth inhibition | % | 8.95
Nc1nc(N)c(NC(=O)CCCO)c(=O)[nH]1 | growth inhibition | % | -53
N#CCCCCCCCCCC#N | growth inhibition | % | 11.4
O=C(NC(CC(NC(=O)OCc1ccccc1)NC(=O)OCc1ccccc1)NC(=O)OCc1ccccc1)OCc1ccccc1 | growth inhibition | % | -4.55
Nc1ccc([N+](=O)[O-])c2ccccc12 | growth inhibition | % | 12.7
O=C(NC(Cc1c[nH]c2ccccc12)(C(=O)O)C(=O)O)OCc1ccccc1 | growth inhibition | % | 17.8
Cc1cc2c(cc1C)OC(=O)CC2 | growth inhibition | % | 3.65
CC(O)C(O)C(O)C(O)C#N (stereo not given) | growth inhibition | % | 10.1
Cc1ccc(S(=O)(=O)NC(CCC(=O)NN)C(=O)NN)cc1 (stereo not given) | growth inhibition | % | -43.4
CN1C(=O)n2c(nc3ccccc32)C(N2CCOCC2)(N2CCOCC2)C1=O | growth inhibition | % | 45.8
COc1ccc2c(c1)C(=O)[C@]1(C)C3(C)OC(=O)C(c4ccccc43)[C@]21C (stereo not given in full) | growth inhibition | % | 12.6
CCCCCC(=O)C(C)(c1nc2nnc(NC(=O)Nc3ccc(Cl)cc3)n2[nH]c1=O)c1nc2nnc(NC(=O)Nc3ccc(Cl)cc3)n2[nH]c1=O | growth inhibition | % | -32.5
CCOC(=O)c1c(Br)c(-c2ccc(OC)cc2)c(Br)n1C | growth inhibition | % | -5.95

====

Protocol: NCI Yeast Anticancer Drug Screen. Data for the mec2-1 strain (AID 157)
Run Parameters: S. cerevisiae mec2-1 strain, at 50.0 µM, stronger effect = higher value
The panel holds about 79,000 compounds, 15% with a hit somewhere; the sample as a whole holds those more often.

Compound | Unit | growth inhibition
NC(CCCCC(N)C(=O)c1ccccc1)C(=O)c1ccccc1 (centres undefined) | % | -7.45
O=c1oc(-c2ccccc2)nc2c1CCCS2 | % | -0.95
CSC1NC(c2ccc(Cl)cc2)=C(C#N)C(=O)N1C1OCC(OC(C)=O)C(OC(C)=O)C1OC(C)=O (centres undefined) | % | -23.6
CCC(C)C(NN)C(=O)O (centres undefined) | % | -5.55
CC(=O)NNc1nc(C)c(C(/C=C/c2ccc([N+](=O)[O-])cc2)=N/N)s1 | % | 9.2
CCO/C([O-])=C(\C=N\S(=O)(=O)c1ccc(C)cc1)[n+]1ccc(C)cc1 | % | 14.7
CC(C#N)(Nc1ccccc1)c1ccccc1 (centres undefined) | % | 6.75
O=C(COc1ccc(Cl)cc1)Nc1nccs1 | % | 32
O=C1CSC(c2cccc(F)c2)N1CCN1C(=O)CSC1c1cccc(F)c1 (centres undefined) | % | 16.7
O=C(CCN(CCC(=O)c1ccccc1)CCC(=O)c1ccccc1)c1ccccc1 | % | 11.8
C=CCNC(=O)/C=C/C | % | 0.65
O=C(Cl)Cc1ccccc1[N+](=O)[O-] | % | 14.6
CCOC(=O)C1=CC(C)(C(=O)OCC)Nc2c(nc(SC)[nH]c2=O)N1 (centres undefined) | % | -24.7
CCC(=O)c1ccc(OC(=O)Nc2ccc(Cl)cc2[N+](=O)[O-])cc1 | % | 42.8
O=[N+]([O-])c1ccccc1N/N=C/c1ccccc1 | % | 7.1
Cc1nc(C(Cl)(Cl)Cl)nc(C(Cl)(Cl)Cl)n1 | % | 47
C1CCN(/N=N/c2nn[nH]n2)CC1 | % | 6.55
NC(=O)c1ncn(C2OC(CO)C(O)C2O)c1NC=O (centres undefined) | % | -3.9
CO/C=C1/CCc2c(ccc3cc(OC)ccc23)C1=O | % | -8.75
COc1cc(OC)c(OC)cc1/C=N/N=C(\N)NO | % | 0.5
Cc1ccccc1N1C(N)=C(C#N)C(C#N)(C#N)C1c1ccccc1 (centres undefined) | % | 22.2
COC1CCC(C(C)(C)C)CC1 (centres undefined) | % | -11.6
S=C(S)OC1CCCCC1.[Zn+2] | % | -15.8
CCOC(=O)NN(C(=O)OCC)c1c(C)[nH]c2ccccc12 | % | 10.6
Cn1c2ccccc2c2nnc(N/N=C/c3cccs3)nc21 | % | -9.2
O=S(Nc1ccc(Cl)cc1)c1ccccc1 (centres undefined) | % | 10.9
COc1c(Cl)cc([N+](=O)[O-])cc1C(=O)O | % | 25.9
CC1CC=[N+]([O-])C1(C)C (centres undefined) | % | -18.1
S=C1CSc2c(cnc3ccccc23)N1 | % | -6
CCCCCC(=O)NCCCOC | % | 10.8
NC(C(F)(F)F)(C(F)(F)F)P(=O)(Cc1ccccc1)Cc1ccccc1 | % | -47.4
c1ccc(-c2nc3ccccc3n2CCc2ccncc2)nc1 | % | 10.4
C=C1C(=O)OC2(C)CCC1CC1OC1(C)CC/C=C(\C)CCC2OC(C)=O (centres undefined) | % | -6.55
CCOC(=O)c1ccc(N2C(C#N)c3ccccc3OC2c2ccccc2O)cc1 (centres undefined) | % | 2.25

====

Entries and their growth inhibition
Protocol: NCI Yeast Anticancer Drug Screen. Data for the sgs1 mgt1 strain (AID 161);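 further: 0% = growth of cultures given vehicle only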
Run Parameters: S. cerevisiae sgs1 mgt1 strain, at 50.0 µM, stronger effect = higher value
About 79,000 compounds went through this panel and 15% of them were active in at least one assay; those are over-represented in the sample as a whole.

Molecule | Unit | growth inhibition
[CH3][Ga]([CH3])[O]c1ccccc1C=O | % | -10.8
COc1ccc(/C=C2/C(=O)N=C(NC(C)=O)N2C)cc1OC | % | -13.7
c1ccc(C(SN=C2CCCCC2)(c2ccccc2)c2ccccc2)cc1 | % | -25.6
CC(C)(C)C1CCC2c3c([nH]c4ncccc34)C3C(=O)N(c4ccccc4)C(=O)C3C2C1 (centres undefined) | % | 1.7
Cc1nc2cccc([N+](=O)[O-])c2c(O)[n+]1C | % | -12.4
O=C1CCC2(O1)c1ccc(O)cc1Oc1cc(O)ccc12 | % | -17.4
CCOC(=O)/C(F)=C/c1ccc(C)cc1 | % | 3.85
Cc1ccc(S(=O)(=O)CC(O)(C(C)C)C(C)C)cc1 | % | -14.2
CCCCC(CC)(CC(=O)O)CC(=O)O | % | 12.3
O=[N+]([O-])c1ccc(S(=O)(=O)N/N=C/c2cccc3ccccc23)cc1 | % | 17.1
CCCCc1c2c(nn1C(C)=O)C(=O)C=C(Nc1ccccc1)C2=O | % | 19.7
CC(=O)Nc1ccc(N)cc1-c1ccc(N)cc1 | % | 1.5
O=C1CNS(=O)(=O)N1 | % | -16.5
CC1(C(N)=O)CCC1 | % | -18.4
O=C(O)C1C(CCl)=C1CCl | % | 2.35
CN1[C@@H]2C[C@@H](OC(=O)[C@H](CO)c3ccccc3)C[C@H]1[C@@H]1O[C@@H]12 | % | -33.7
CC(=O)c1ccc(C(=O)O)cc1 | % | 2.45
CCCCCCC(=O)c1ccc2ccccc2c1O | % | 0.55
O=C(Nc1ccc([N+](=O)[O-])cc1)c1ccc(Cl)cc1 | % | -1.35
